molecular target: PKCa (Homo sapiens); test: Kinase profiling PKCa; assay type: biochemical; conditions: 100 micromolar inhibitor concentration; 100 is no change
Assign True to entries whose residual kinase activity, PKCa meets or exceeds 100; assign False to the rest.

mol=CC(=O)Nc1cccc(C(=O)Nc2nc3cc(O)ccc3s2)c1 label=False
mol=CC(=O)Nc1nc2cc(C)ccc2s1 label=False
mol=O=C(Nc1nc2cc(O)ccc2s1)c1cccnc1 label=True
mol=CC(=O)Nc1ccccc1C(=O)Nc1nc2ccc(O)cc2s1 label=False

====

target: PAK6 (Homo sapiens); test: Kinase profiling PAK6; assay type: biochemical; conditions: 100 micromolar inhibitor concentration; 100 is no change; read-out: residual kinase activity, PAK6
Sequence (Q9NQU5 whole entry, species assumed): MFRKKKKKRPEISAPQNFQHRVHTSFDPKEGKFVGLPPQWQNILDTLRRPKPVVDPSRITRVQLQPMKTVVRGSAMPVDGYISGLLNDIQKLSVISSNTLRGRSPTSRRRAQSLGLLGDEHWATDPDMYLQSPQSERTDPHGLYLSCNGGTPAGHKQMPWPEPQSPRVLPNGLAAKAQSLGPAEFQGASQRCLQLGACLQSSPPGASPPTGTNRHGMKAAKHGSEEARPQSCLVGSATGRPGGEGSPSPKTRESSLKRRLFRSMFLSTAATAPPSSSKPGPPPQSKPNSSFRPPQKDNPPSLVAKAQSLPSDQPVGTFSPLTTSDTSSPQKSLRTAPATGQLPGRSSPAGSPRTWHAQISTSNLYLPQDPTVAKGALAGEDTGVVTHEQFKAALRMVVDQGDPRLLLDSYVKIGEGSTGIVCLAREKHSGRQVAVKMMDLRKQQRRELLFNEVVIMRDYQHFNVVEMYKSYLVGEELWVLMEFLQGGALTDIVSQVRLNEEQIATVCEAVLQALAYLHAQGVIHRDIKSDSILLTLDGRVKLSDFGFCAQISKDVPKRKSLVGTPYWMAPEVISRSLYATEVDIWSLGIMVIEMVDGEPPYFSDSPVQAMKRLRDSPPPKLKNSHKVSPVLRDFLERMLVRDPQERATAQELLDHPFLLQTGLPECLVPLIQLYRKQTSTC
Property Measured: remaining activity at 100 µM (%)

compound="CC(=O)Nc1nc2cc(F)ccc2s1 [Compound 03-77]" number=106
compound="CC(=O)Nc1nc2cc(C(F)(F)F)ccc2s1 [Compound 03-73]" number=11
compound="CC(=O)Nc1nc2ccc(C(F)(F)F)cc2s1 [Compound 01-90]" number=106
compound="COc1ccc2sc(NC(C)=O)nc2c1 [Compound 03-21]" number=108
compound="CC(=O)Nc1nc2ccc(C#N)cc2s1 [Compound 01-94]" number=92
compound="CC(=O)Nc1nc2ccc(O)cc2s1 [Compound 01-71]" number=81

====

molecular target: PKCz (Homo sapiens, UniProt Q05513); assay: Kinase profiling PKCz; assay type: biochemical; details: 100 micromolar inhibitor concentration; 100 is no change
Sequence (Q05513 whole entry): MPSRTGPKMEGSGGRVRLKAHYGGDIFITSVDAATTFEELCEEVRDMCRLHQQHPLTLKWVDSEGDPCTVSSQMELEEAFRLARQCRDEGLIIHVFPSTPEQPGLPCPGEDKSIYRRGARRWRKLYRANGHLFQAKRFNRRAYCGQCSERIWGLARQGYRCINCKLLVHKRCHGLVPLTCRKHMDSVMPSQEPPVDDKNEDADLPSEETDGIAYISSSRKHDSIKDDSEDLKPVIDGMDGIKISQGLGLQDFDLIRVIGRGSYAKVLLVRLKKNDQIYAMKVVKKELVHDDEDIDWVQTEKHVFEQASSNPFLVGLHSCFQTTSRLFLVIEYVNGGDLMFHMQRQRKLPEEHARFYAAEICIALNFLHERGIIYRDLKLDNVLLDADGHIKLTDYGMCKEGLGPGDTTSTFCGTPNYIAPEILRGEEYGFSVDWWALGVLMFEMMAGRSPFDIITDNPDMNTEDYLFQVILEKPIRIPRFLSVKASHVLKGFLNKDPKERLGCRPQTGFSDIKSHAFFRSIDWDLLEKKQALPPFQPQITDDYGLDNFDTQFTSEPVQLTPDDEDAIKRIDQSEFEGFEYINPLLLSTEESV
Assign Criterion met to entries whose residual kinase activity, PKCz meets or exceeds 90; assign Criterion not met to the rest.

molecule="CC(=O)NC(C)C(=O)Nc1nc2ccc(C(F)(F)F)cc2s1 (stereo not drawn)" label="Criterion not met"
molecule=CC(=O)Nc1nc2cc(C)ccc2s1 label="Criterion met"
molecule=CC(=O)Nc1cccc(C(=O)Nc2nc3cc(O)ccc3s2)c1 label="Criterion not met"
molecule=O=C(Nc1nc2cc(O)ccc2s1)c1ccncc1 label="Criterion not met"
molecule=COc1ccc2sc(NC(=O)c3ccc(NC(C)=O)cc3)nc2c1 label="Criterion met"
molecule=O=C(Nc1nc2ccc(O)cc2s1)c1ccccc1 label="Criterion not met"

====

Reported remaining activity at 100 µM values follow for various molecules
molecular target: JAK2 (Homo sapiens, UniProt O60674); test: Kinase profiling JAK2; type: biochemical; conditions: 100 micromolar inhibitor concentration; 100 is no change; read-out: residual kinase activity, JAK2
Sequence (O60674 whole entry, species assumed): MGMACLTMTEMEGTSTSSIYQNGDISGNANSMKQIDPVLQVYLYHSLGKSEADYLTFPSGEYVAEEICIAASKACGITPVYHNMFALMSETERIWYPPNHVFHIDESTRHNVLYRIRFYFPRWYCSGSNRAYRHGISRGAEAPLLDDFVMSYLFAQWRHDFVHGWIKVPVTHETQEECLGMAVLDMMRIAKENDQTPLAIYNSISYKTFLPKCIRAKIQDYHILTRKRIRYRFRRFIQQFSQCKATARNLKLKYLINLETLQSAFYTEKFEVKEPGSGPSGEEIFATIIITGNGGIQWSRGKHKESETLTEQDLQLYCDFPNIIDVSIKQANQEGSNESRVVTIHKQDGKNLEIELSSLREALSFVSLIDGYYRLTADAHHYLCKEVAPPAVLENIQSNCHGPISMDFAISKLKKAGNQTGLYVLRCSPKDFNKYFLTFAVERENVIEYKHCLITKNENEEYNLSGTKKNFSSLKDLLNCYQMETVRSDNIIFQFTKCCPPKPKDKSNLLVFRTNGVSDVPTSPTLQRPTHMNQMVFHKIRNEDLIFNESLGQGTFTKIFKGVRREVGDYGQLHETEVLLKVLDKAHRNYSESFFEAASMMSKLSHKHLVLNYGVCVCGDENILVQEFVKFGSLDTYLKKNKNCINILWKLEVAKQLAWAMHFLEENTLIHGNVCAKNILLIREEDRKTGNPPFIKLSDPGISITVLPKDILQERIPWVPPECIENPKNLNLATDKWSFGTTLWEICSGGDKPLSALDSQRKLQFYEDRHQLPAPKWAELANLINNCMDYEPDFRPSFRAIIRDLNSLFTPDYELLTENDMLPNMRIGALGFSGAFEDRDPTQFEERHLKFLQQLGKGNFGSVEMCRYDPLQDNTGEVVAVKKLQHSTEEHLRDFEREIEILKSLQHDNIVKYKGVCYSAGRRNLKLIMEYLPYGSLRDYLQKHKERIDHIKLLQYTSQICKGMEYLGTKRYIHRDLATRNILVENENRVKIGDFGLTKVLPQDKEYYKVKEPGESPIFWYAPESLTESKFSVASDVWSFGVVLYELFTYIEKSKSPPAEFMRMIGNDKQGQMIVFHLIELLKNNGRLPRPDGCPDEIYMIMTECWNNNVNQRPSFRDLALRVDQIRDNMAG
Property Measured: remaining activity at 100 µM (%)

mol=CC(=O)Nc1nc2cc(C(F)(F)F)ccc2s1 endpoint_unit=% number=96
mol=CC(=O)Nc1nc2ccc(O)cc2s1 endpoint_unit=% number=43
mol=CC(=O)Nc1nc2ccc([N+](=O)[O-])cc2s1 endpoint_unit=% number=91
mol=CC(=O)Nc1nc2ccc(C(F)(F)F)cc2s1 endpoint_unit=% number=73
mol=CC(=O)Nc1nc2cc(F)ccc2s1 endpoint_unit=% number=57
mol=COc1ccc2sc(NC(C)=O)nc2c1 endpoint_unit=% number=88
mol=CC(=O)Nc1nc2ccc(C#N)cc2s1 endpoint_unit=% number=33

====

target: UniProt:P51812; assay: Kinase profiling RSK2; type: biochemical; conditions: 100 micromolar inhibitor concentration; 100 is no change; read-out: residual kinase activity, RSK2
Sequence (P51812 whole entry, species assumed): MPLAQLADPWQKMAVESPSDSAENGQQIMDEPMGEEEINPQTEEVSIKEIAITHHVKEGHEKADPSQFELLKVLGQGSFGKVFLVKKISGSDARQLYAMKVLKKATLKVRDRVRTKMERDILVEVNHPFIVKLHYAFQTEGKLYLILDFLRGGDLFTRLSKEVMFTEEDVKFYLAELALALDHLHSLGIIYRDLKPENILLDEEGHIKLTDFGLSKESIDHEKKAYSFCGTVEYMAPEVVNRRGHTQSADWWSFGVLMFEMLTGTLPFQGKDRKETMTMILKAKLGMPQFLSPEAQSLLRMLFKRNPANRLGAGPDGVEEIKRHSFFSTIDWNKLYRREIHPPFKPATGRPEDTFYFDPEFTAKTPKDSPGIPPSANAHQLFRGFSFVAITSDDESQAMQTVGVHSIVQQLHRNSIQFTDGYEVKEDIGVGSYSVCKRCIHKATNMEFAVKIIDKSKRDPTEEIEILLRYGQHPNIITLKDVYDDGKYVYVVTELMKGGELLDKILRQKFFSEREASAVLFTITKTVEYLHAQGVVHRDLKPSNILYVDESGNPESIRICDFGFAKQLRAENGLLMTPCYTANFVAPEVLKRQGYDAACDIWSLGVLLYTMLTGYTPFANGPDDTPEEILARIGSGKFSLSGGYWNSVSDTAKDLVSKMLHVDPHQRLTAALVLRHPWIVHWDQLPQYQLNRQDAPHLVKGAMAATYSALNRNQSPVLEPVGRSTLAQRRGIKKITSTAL
Reported remaining activity at 100 µM values follow for various molecules
Property Measured: remaining activity at 100 µM (%)

molecule="CC(=O)Nc1nc2cc(F)ccc2s1 [Compound 03-77]" number=83
molecule="CC(=O)Nc1nc2ccc(C(F)(F)F)cc2s1 [Compound 01-90]" number=92
molecule="CC(=O)Nc1nc2ccc(O)cc2s1 [Compound 01-71]" number=48
molecule="CC(=O)Nc1nc2cc(C(F)(F)F)ccc2s1 [Compound 03-73]" number=83
molecule="COc1ccc2sc(NC(C)=O)nc2c1 [Compound 03-21]" number=94
molecule="CC(=O)Nc1nc2ccc(C#N)cc2s1 [Compound 01-94]" number=87
